biological target: streptavidin (Streptomyces avidinii, UniProt P22629); experiment: HABA competition binding assay (competitive ligand-binding analysis); settings: aldehyde-modified peptide (Figure 6b, column 3); >10 μM given where no saturation; read-out: Kd,app
Sequence (P22629 25-183): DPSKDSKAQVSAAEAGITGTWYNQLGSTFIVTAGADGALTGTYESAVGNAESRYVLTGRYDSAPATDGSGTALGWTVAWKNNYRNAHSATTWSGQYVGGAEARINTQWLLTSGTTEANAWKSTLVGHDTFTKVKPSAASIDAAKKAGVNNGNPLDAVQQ
Ends that are not written are not given here.
reportedProperty: Kd (µM)
Give the value, in units of µM, as a plain number.

Which Kd is listed for AWWTNDFCA-NH2 [SAV_1S] ?
5.16

====

ring closure, product found reference
assay: Head-to-side-chain cyclisation: Cys S-alkylation with bifunctional aldehyde linker 1-4 (benzyl bromide or bromoacetamide), then intramolecular reductive amination of the N-terminal amine with NaBH3CN (one pot, crude peptides); details: the molecule shown is the open-chain precursor; 32-membered ring; 100 mM MOPS pH 6.5 / about 20% MeCN, TCEP; 0.5 mM; 4.0 °C; 24.0 h; 2 steps; scale: 1 = smooth/efficient conversion to macrocycle as major UPLC-MS species; <1 = partial, mixture
Just the number, please, no unit attached.

Which ring closure, product found is listed for CC(C)[C@H](NC(=O)[C@H](C)N)C(=O)N[C@@H](CO)C(=O)N[C@@H](CO)C(=O)NCC(=O)NCC(=O)N[C@@H](CSCC(=O)Nc1ccc2cc(C=O)ccc2c1)C(=O)N[C@@H](Cc1c[nH]c2ccccc12)C(=O)N[C@@H](C)C(N)=O ?
1

Which ring closure, product found is listed for CC(C)[C@H](NC(=O)[C@@H](N)CCCCN)C(=O)N[C@@H](CO)C(=O)N[C@@H](CO)C(=O)NCC(=O)NCC(=O)N[C@@H](CSCC(=O)Nc1ccc2cc(C=O)ccc2c1)C(=O)N[C@@H](Cc1c[nH]c2ccccc12)C(=O)N[C@@H](C)C(N)=O ?
1

Which ring closure, product found is listed for COc1ccc(C=O)cc1NC(=O)CSC[C@H](NC(=O)[C@H](Cc1ccc(O)cc1)NC(=O)[C@H](Cc1c[nH]cn1)NC(=O)[C@H](CCCCN)NC(=O)[C@H](CCC(=O)O)NC(=O)[C@H](CC(N)=O)NC(=O)[C@@H](NC(=O)[C@H](C)N)C(C)C)C(=O)N[C@@H](Cc1c[nH]c2ccccc12)C(=O)N[C@@H](C)C(N)=O ?
1

====

molecular target: streptavidin (Streptomyces avidinii, UniProt P22629); test: HABA competition binding assay (competitive ligand-binding analysis); details: cyclic peptide (Figure 6b, column 4); >10 μM given where no saturation; read-out: Kd,app
Ends that are not written are not given here.
reportedProperty: pKd
Field pKd (float): negative decimal logarithm of the concentration in molar.

Which pKd is listed for AWWTNDFCA-NH2 [SAV_1S] ?
6.79
